In this section we review reported koff values for a set of binders.
- assay.target: T1, Soluble TSHR (22-260) protein (human, UniProt P16473 22-260)
- T1 construct: range 22-260
- protocol: SPR (Biacore T200, 25 C), antibody captured on anti-human Fc, soluble TSHR (22-260) as analyte, 1:1 fit;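 note: antibodies captured at 0.1 ug/mL on a CM5 sensor chip bearing anti-human Fc, with HBS-EP+ running buffer at pH 7.4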
Note: state the figure and append the unit.

Input: Need koff, item TSHB-16 (antibody, V domains shown) VH: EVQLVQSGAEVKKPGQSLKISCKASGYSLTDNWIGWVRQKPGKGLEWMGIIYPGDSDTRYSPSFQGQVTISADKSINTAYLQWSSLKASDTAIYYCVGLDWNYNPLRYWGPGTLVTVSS VL: QSVLTQPPSVSAAPGQKVTISCSGSSSDIGANYVSWYQQLPGTAPKLLIYDNNKRPSGIPDRFSGSKSGTSATLGITGLQTGDEADYYCGTWDSRLGIAVFGGGTQLTVL
Output: 0.000385 s⁻¹

Input: Quick one: koff of TSHB-1 (antibody, V domains shown) VH: EVQLVQSGAEVKKPGESLKISCKASGYSLTDNWIGWVRQKPGKGLEWMGIIYPGDSDTRYSPSFQGQVTISADKSISTAYLQWSSLKASDTAIYYCVGLDWNYNPLRYWGQGTLVTVSS VL: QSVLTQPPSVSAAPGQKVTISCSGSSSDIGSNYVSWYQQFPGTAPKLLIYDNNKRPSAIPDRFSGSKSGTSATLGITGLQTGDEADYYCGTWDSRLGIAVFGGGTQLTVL ?
Output: 0.000273 s⁻¹

Input: Endpoint output: koff of TSHB-4 (antibody, V domains shown) VH: EVQLVQSGAEVKKPGESLKISCKASGYELTDNWIGWVRQKPGKGLEWMGIIYPGDSDTRYSPSFQGQVTISADKSISTAYLQWSSLKASDTAIYYCVGLDWNYNPLRYWGQGTLVTVSS VL: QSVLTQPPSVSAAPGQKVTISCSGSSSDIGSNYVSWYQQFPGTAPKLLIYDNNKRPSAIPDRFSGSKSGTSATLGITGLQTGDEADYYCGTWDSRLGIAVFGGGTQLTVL . Value?
Output: 0.000362 s⁻¹
